Target: Mps-1 kinase (Homo sapiens, UniProt P33981)
Assay: Mps-1 kinase assay with 10 μM ATP (TR-FRET)
Property Label: IC50

GET /values?readout=IC50&item= COc1cc(S(C)(=O)=O)ccc1Nc1nc2ccc(-c3ccc(NC(=O)Cc4ccccc4)cc3)cn2n1
≤ 1 nM

More entries:
Can you share its IC50? I mean this compound: N#Cc1ccccc1Nc1nc2ccc(-c3ccc(NC(=O)Cc4cccc(C(F)(F)F)c4)cc3)cn2n1 [Example 8, reference compound]
1.4 nM

Follow-up entry: COc1cc([S@@+](C)[O-])c(F)cc1Nc1nc2ccc(-c3ccc(NC(=O)Cc4ccc(F)cc4)cc3)cn2n1 (stereo in doubt)
≤ 1 nM

What do you get for CS(=O)(=O)c1ccc(Nc2nc3ccc(-c4ccc(C(=O)NCc5ccc(F)cc5)cc4)cn3n2)c(OCC(F)(F)F)c1 ?
≤ 1 nM

And what about the compound Cc1cc([S@@+](C)[O-])ccc1Nc1nc2ccc(-c3ccc(C(=O)NCc4ccc(F)cc4)cc3)cn2n1 (stereo in doubt) ?
≤ 1 nM

Similarly, COc1cc(S(C)(=O)=O)ccc1Nc1nc2ccc(-c3ccc(C(=O)NCc4ccc(F)cc4)c(OC)c3)cn2n1 ?
≤ 1 nM

---

Target: Mps-1 kinase (Homo sapiens)
Sequence (P33981 1-857): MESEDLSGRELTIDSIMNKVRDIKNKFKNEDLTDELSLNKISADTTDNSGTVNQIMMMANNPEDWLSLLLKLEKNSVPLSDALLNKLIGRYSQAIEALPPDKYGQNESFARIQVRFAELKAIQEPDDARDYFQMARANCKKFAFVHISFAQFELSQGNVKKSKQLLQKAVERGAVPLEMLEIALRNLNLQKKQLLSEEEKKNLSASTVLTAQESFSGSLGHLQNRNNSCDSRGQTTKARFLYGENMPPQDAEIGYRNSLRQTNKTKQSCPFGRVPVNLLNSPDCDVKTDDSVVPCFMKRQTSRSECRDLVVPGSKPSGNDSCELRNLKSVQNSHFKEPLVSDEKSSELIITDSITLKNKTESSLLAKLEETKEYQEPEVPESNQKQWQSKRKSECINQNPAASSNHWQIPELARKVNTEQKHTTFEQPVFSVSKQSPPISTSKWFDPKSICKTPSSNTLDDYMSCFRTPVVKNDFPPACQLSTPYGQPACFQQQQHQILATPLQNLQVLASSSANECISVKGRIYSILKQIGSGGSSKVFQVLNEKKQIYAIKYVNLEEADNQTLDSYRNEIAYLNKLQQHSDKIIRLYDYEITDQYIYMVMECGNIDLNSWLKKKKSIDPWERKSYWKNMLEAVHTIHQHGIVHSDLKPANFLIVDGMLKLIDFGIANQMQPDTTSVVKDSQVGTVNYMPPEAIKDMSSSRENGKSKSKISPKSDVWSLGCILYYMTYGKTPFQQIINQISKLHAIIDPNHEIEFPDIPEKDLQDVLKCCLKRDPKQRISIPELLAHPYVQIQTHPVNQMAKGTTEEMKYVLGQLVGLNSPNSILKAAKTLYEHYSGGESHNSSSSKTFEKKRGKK
Test: Mps-1 kinase assay with 2 mM ATP (TR-FRET)
Property Label: IC50 (nM)
// units = nM; emit number, no label

So what IC50 did CS(=O)(=O)c1ccc(Nc2nc3ccc(-c4ccc(C(=O)NCc5ccc(F)cc5)cc4)cn3n2)c(OC2CC2)c1 get with Mps-1 kinase (Homo sapiens)?
7.5

Next:
Give recorded IC50 with Mps-1 kinase (Homo sapiens) for the following compound: CCN(CC)C(=O)c1ccc(Nc2nc3ccc(-c4ccc(NC(=O)Cc5ccc(F)cc5)cc4)cn3n2)c(OCCOC)c1
21

One more compound: CCN(CC)C(=O)c1ccc(Nc2nc3ccc(-c4ccc(NC(=O)Cc5ccc(F)cc5)cc4)cn3n2)c(OC(C)C)c1
1.3

Same again, this time with CCOc1cc(F)ccc1Nc1nc2ccc(-c3ccc(NC(=O)Cc4ccc(F)cc4)cc3)cn2n1
1.1

Can you handle COc1cc(S(C)(=O)=O)ccc1Nc1nc2ccc(-c3ccc(C(=O)NCc4ccc(C)cc4)cc3)cn2n1 next?
7.4
